Numbers sourced from the supplement of paper PMC10724198.

Test system: Saccharomyces cerevisiae;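 note: PSI is a weighted mean of sequencing reads over stability bins, variants kept only with over 10 reads, mCherry proximal and sfGFP distal, peptide attached via GGGS linker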
Assay procedure: protein stability index of tFT-peptide fusion (C-terminal peptide) (PSI (0-1 scale)); higher = more stable (slower turnover)
Study conditions: genetic background: wild type; temperature: 30 C
Parameter measured: protein stability index
Response field accepts a number only; no unit should be typed.

Req: Would you kindly share the measured protein stability index for IRLYGQATFRWE ?
Resp: 0.625

Req: Would you kindly share the measured protein stability index for LRIQKIVSGALM ?
Resp: 0.707

Req: Would you kindly share the measured protein stability index for TPSIFNRTNGPK ?
Resp: 0.738

Req: Would you kindly share the measured protein stability index for CTSCDQRLQRWG ?
Resp: 0.728

Req: Would you kindly share the measured protein stability index for FHVFTRTVGSVL ?
Resp: 0.643

Req: Would you kindly share the measured protein stability index for SRTSRGPPFSSS ?
Resp: 0.688

Req: Would you kindly share the measured protein stability index for FFVFSFVLFFPL ?
Resp: 0.369

Req: Would you kindly share the measured protein stability index for PPRYDSLFGALF ?
Resp: 0.676

Req: Would you kindly share the measured protein stability index for HLAHVCYEVPTY ?
Resp: 0.568

Req: Would you kindly share the measured protein stability index for DKKGRIKIKNRQ ?
Resp: 0.618

Req: Would you kindly share the measured protein stability index for PPHNPTPSPTTP ?
Resp: 0.719

Req: Would you kindly share the measured protein stability index for KNNKIKHIKVKN ?
Resp: 0.679

Req: Would you kindly share the measured protein stability index for VLRRADLGYPRV ?
Resp: 0.663

Req: Would you kindly share the measured protein stability index for AVFLGGLLVSRW ?
Resp: 0.682

Req: Would you kindly share the measured protein stability index for LQVTLALSAALP ?
Resp: 0.802

Req: Would you kindly share the measured protein stability index for TSGNSTALKMGR ?
Resp: 0.741

Req: Would you kindly share the measured protein stability index for AVCLLRLDRSRA ?
Resp: 0.665

Req: Would you kindly share the measured protein stability index for CWRVGRERRGAG ?
Resp: 0.604

Req: Would you kindly share the measured protein stability index for SWFSPMCTTSPR ?
Resp: 0.677

Req: Would you kindly share the measured protein stability index for SPANLGFKHSGR ?
Resp: 0.674

Req: Would you kindly share the measured protein stability index for HYLYSLLVLPPL ?
Resp: 0.658

Req: Would you kindly share the measured protein stability index for SSGSRCQQKIRY ?
Resp: 0.66

Req: Would you kindly share the measured protein stability index for SSRCRGYLFVDG ?
Resp: 0.738

Req: Would you kindly share the measured protein stability index for LPRLTPARPRHH ?
Resp: 0.7

Req: Would you kindly share the measured protein stability index for QREKTRSWDIET ?
Resp: 0.686

Req: Would you kindly share the measured protein stability index for LLSSPYPPDTFT ?
Resp: 0.643

Req: Would you kindly share the measured protein stability index for CCDWLFCVGVAG ?
Resp: 0.558

Req: Would you kindly share the measured protein stability index for KHGSKEAHKNEN ?
Resp: 0.695

Req: Would you kindly share the measured protein stability index for KQLKKKKQIRRK ?
Resp: 0.728

Req: Would you kindly share the measured protein stability index for LLGVRLGVLSFA ?
Resp: 0.58

Req: Would you kindly share the measured protein stability index for APSINVQVYWSG ?
Resp: 0.649

Req: Would you kindly share the measured protein stability index for LLSFLLFFVPGS ?
Resp: 0.576

Req: Would you kindly share the measured protein stability index for LRLLSLIPPLSC ?
Resp: 0.467

Req: Would you kindly share the measured protein stability index for WLRRFIFGSVVN ?
Resp: 0.657

Req: Would you kindly share the measured protein stability index for IGLCGWVSGAAT ?
Resp: 0.727

Req: Would you kindly share the measured protein stability index for PASASVHPRILC ?
Resp: 0.559

Req: Would you kindly share the measured protein stability index for SRKKDEGEYHRK ?
Resp: 0.68

Req: Would you kindly share the measured protein stability index for VLYGRFSLLGWC ?
Resp: 0.595

Req: Would you kindly share the measured protein stability index for WSMSSPPLLLAS ?
Resp: 0.36

Req: Would you kindly share the measured protein stability index for VRGLHRRFEPSN ?
Resp: 0.8

Req: Would you kindly share the measured protein stability index for YCGCSLSEMSWV ?
Resp: 0.741

Req: Would you kindly share the measured protein stability index for SHVARFMDEFCM ?
Resp: 0.79

Req: Would you kindly share the measured protein stability index for ICSRCLVTVLSC ?
Resp: 0.311

Req: Would you kindly share the measured protein stability index for VAFLWVAFCFSG ?
Resp: 0.276

Req: Would you kindly share the measured protein stability index for SRIASKNRKRKR ?
Resp: 0.774

Req: Would you kindly share the measured protein stability index for PPDSSPLGGEVG ?
Resp: 0.677

Req: Would you kindly share the measured protein stability index for GVGGCVMGVGRV ?
Resp: 0.648

Req: Would you kindly share the measured protein stability index for PRPVRPSPHPPP ?
Resp: 0.689

Req: Would you kindly share the measured protein stability index for TNIITRHNKKDK ?
Resp: 0.657

Req: Would you kindly share the measured protein stability index for RFLMGYEVNCAV ?
Resp: 0.548

Req: Would you kindly share the measured protein stability index for FCFCLVLRVFLG ?
Resp: 0.253

Req: Would you kindly share the measured protein stability index for KHGLSDRAPLPK ?
Resp: 0.698

Req: Would you kindly share the measured protein stability index for PLLPPLSTPPPA ?
Resp: 0.385

Req: Would you kindly share the measured protein stability index for STVGRFPLSFHH ?
Resp: 0.726

Req: Would you kindly share the measured protein stability index for GRGDNRKVDGEG ?
Resp: 0.671

Req: Would you kindly share the measured protein stability index for MGGRDNLVQKEW ?
Resp: 0.804

Req: Would you kindly share the measured protein stability index for FVVHPARYYLVL ?
Resp: 0.427

Req: Would you kindly share the measured protein stability index for VVGGRWVVWSFK ?
Resp: 0.688

Req: Would you kindly share the measured protein stability index for LLVWPLDQTFRL ?
Resp: 0.698

Req: Would you kindly share the measured protein stability index for TVYSPAYSIIHQ ?
Resp: 0.584

Req: Would you kindly share the measured protein stability index for VVGAGTEWMVEV ?
Resp: 0.642

Req: Would you kindly share the measured protein stability index for FSGGGRGLVGEV ?
Resp: 0.7

Req: Would you kindly share the measured protein stability index for RLPLYAIPPFPP ?
Resp: 0.636

Req: Would you kindly share the measured protein stability index for GKVCGRAEYPQT ?
Resp: 0.719

Req: Would you kindly share the measured protein stability index for REEREISGNLLV ?
Resp: 0.79

Req: Would you kindly share the measured protein stability index for QRTNTIINKRIV ?
Resp: 0.565

Req: Would you kindly share the measured protein stability index for ASSFEGVWCTGC ?
Resp: 0.721

Req: Would you kindly share the measured protein stability index for FSVLVVYTRLFQ ?
Resp: 0.414

Req: Would you kindly share the measured protein stability index for FERVLVFENRKY ?
Resp: 0.728

Req: Would you kindly share the measured protein stability index for WCVRWGVVGPGL ?
Resp: 0.634

Req: Would you kindly share the measured protein stability index for TRPSGSFLALPP ?
Resp: 0.685

Req: Would you kindly share the measured protein stability index for PPINPTEPPITI ?
Resp: 0.696

Req: Would you kindly share the measured protein stability index for EMYLKTPVDRKL ?
Resp: 0.678

Req: Would you kindly share the measured protein stability index for SRPPSPHPLPPP ?
Resp: 0.656

Req: Would you kindly share the measured protein stability index for RVSTIEAEINLR ?
Resp: 0.708

Req: Would you kindly share the measured protein stability index for YLDTVALLSRVL ?
Resp: 0.569

Req: Would you kindly share the measured protein stability index for FCASCLVCFIYL ?
Resp: 0.462

Req: Would you kindly share the measured protein stability index for VFLLFFFPCSSR ?
Resp: 0.528

Req: Would you kindly share the measured protein stability index for YGWGFLFILTLM ?
Resp: 0.182

Req: Would you kindly share the measured protein stability index for GWVNKQVVTEAH ?
Resp: 0.728

Req: Would you kindly share the measured protein stability index for SRPLLLLPCLLP ?
Resp: 0.643

Req: Would you kindly share the measured protein stability index for SLSDGGPSCPGV ?
Resp: 0.677
